These entries and their values trace back to paper doi:10.1101/2021.07.09.451751v1.

# Substrate: Nc1ncnc2c1ncn2[C@@H]1O[C@H](COP(=O)(O)OP(=O)(O)OP(=O)(O)O)[C@@H](O)[C@H]1O
# TEST METHOD NOTES: phosphate release, BIOMOL Green
# Assay type: biochemical, Homo sapiens
# EXPERIMENTAL SETUP: 50 mM HEPES-KOH pH 7.5, 100 mM NaCl, 5 mM MgCl2, 37 °C
Friendly reminder: kcat below 0.0007 s⁻¹ is fulfilled, at or above is not fulfilled.

Known results for proteins:
[
  {
    "PROTEIN": "histidine-tagged human MLH1 NTD (Homo sapiens; K311E) (protein) MSFVAGVIRRLDETVVNRIAAGEVIQRPANAIKEMIENCLDAKSTSIQVIVKEGGLKLIQIQDNGTGIRKEDLDIVCERFTTSKLQSFEDLASISTYGFRGEALASISHVAHVTITTKTADGKCAYRASYSDGKLKAPPKPCAGNQGTQITVEDLFYNIATRRKALKNPSEEYGKILEVVGRYSVHNAGISFSVKKQGETVADVRTLPNASTVDNIRSIFGNAVSRELIEIGCEDKTLAFKMNGYISNANYSVKKCIFLLFINHRLVESTSLRKAIETVYAAYLPKNTHPFLYLSLEISPQNVDVNVHPTEHEVHFLHEESILERVQQHIESKLLG",
    "CLASS": "fulfilled"
  },
  {
    "PROTEIN": "ProS2-fused human PMS2 NTD (Homo sapiens; K340A) (protein) MERAESSSTEPAKAIKPIDRKSVHQICSGQVVLSLSTAVKELVENSLDAGATNIDLKLKDYGVDLIEVSDNGCGVEEENFEGLTLKHHTSKIQEFADLTQVETFGFRGEALSSLCALSDVTISTCHASAKVGTRLMFDHNGKIIQKTPYPRPRGTTVSVQQLFSTLPVRHKEFQRNIKKEYAKMVQVLHAYCIISAGIRVSCTNQLGQGKRQPVVCTGGSPSIKENIGSVFGQKQLQSLIPFVQLPPSDSVCEEYGLSCSDALHNLFYISGFISQCTHGVGRSSTDRQFFFINRRPCDPAKVCRLVNEVYHMYNRHQYPFVVLNISVDSECVDINVTPDARQILLQEEKLLLAVLKTSLIGMFDS",
    "CLASS": "not fulfilled"
  },
  {
    "PROTEIN": "histidine-tagged human MLH1 NTD (Homo sapiens) (protein) MSFVAGVIRRLDETVVNRIAAGEVIQRPANAIKEMIENCLDAKSTSIQVIVKEGGLKLIQIQDNGTGIRKEDLDIVCERFTTSKLQSFEDLASISTYGFRGEALASISHVAHVTITTKTADGKCAYRASYSDGKLKAPPKPCAGNQGTQITVEDLFYNIATRRKALKNPSEEYGKILEVVGRYSVHNAGISFSVKKQGETVADVRTLPNASTVDNIRSIFGNAVSRELIEIGCEDKTLAFKMNGYISNANYSVKKCIFLLFINHRLVESTSLRKAIETVYAAYLPKNTHPFLYLSLEISPQNVDVNVHPTKHEVHFLHEESILERVQQHIESKLLG",
    "CLASS": "not fulfilled"
  }
]

(Q) Quick check: does ProS2-fused human PMS2 NTD (Homo sapiens; K340E) (protein) MERAESSSTEPAKAIKPIDRKSVHQICSGQVVLSLSTAVKELVENSLDAGATNIDLKLKDYGVDLIEVSDNGCGVEEENFEGLTLKHHTSKIQEFADLTQVETFGFRGEALSSLCALSDVTISTCHASAKVGTRLMFDHNGKIIQKTPYPRPRGTTVSVQQLFSTLPVRHKEFQRNIKKEYAKMVQVLHAYCIISAGIRVSCTNQLGQGKRQPVVCTGGSPSIKENIGSVFGQKQLQSLIPFVQLPPSDSVCEEYGLSCSDALHNLFYISGFISQCTHGVGRSSTDRQFFFINRRPCDPAKVCRLVNEVYHMYNRHQYPFVVLNISVDSECVDINVTPDERQILLQEEKLLLAVLKTSLIGMFDS have kcat under 0.0007 s⁻¹?
(A) fulfilled

(Q) Moving on to the next protein: ProS2-fused human PMS2 NTD (Homo sapiens; K91R) (protein) MERAESSSTEPAKAIKPIDRKSVHQICSGQVVLSLSTAVKELVENSLDAGATNIDLKLKDYGVDLIEVSDNGCGVEEENFEGLTLKHHTSRIQEFADLTQVETFGFRGEALSSLCALSDVTISTCHASAKVGTRLMFDHNGKIIQKTPYPRPRGTTVSVQQLFSTLPVRHKEFQRNIKKEYAKMVQVLHAYCIISAGIRVSCTNQLGQGKRQPVVCTGGSPSIKENIGSVFGQKQLQSLIPFVQLPPSDSVCEEYGLSCSDALHNLFYISGFISQCTHGVGRSSTDRQFFFINRRPCDPAKVCRLVNEVYHMYNRHQYPFVVLNISVDSECVDINVTPDKRQILLQEEKLLLAVLKTSLIGMFDS
(A) not fulfilled

(Q) Now the same for ProS2-fused human PMS2 NTD (Homo sapiens) (protein) MERAESSSTEPAKAIKPIDRKSVHQICSGQVVLSLSTAVKELVENSLDAGATNIDLKLKDYGVDLIEVSDNGCGVEEENFEGLTLKHHTSKIQEFADLTQVETFGFRGEALSSLCALSDVTISTCHASAKVGTRLMFDHNGKIIQKTPYPRPRGTTVSVQQLFSTLPVRHKEFQRNIKKEYAKMVQVLHAYCIISAGIRVSCTNQLGQGKRQPVVCTGGSPSIKENIGSVFGQKQLQSLIPFVQLPPSDSVCEEYGLSCSDALHNLFYISGFISQCTHGVGRSSTDRQFFFINRRPCDPAKVCRLVNEVYHMYNRHQYPFVVLNISVDSECVDINVTPDKRQILLQEEKLLLAVLKTSLIGMFDS
(A) not fulfilled
